Each recorded value in this set is attributed to PubChem BioAssay (EPA / NIEHS).

read-out: Thrombomodulin, THBD (gene 7056); experiment: BSK_3C_Thrombomodulin: BioMAP Diversity Plus: 3C Assay for Thrombomodulin Biomarker Activity (AID 2283029); details: primary human endothelial cells (HUVEC); actives raise or lower the signal
Active and inactive are the calls of the source. How the source made its calls: active means hit-call score of the fitted dose curve at least 0.9, where 1 is the maximum; inactive means score below 0.9.
Assign a class; possible classes are true (active), false (inactive)

Solved entries (count: 6):
>  <compound>
CCCCC(CC)COCCC#N (configuration not stated)

>  <assigned_label>
false

$$$$
>  <compound>
CC(=O)Nc1ccccc1O

>  <assigned_label>
false

$$$$
>  <compound>
O=P(c1ccccc1)(c1ccccc1)c1ccccc1

>  <assigned_label>
false

$$$$
>  <compound>
Cc1ccc2n[nH]nc2c1

>  <assigned_label>
false

$$$$
>  <compound>
Cc1ccc(O)c(C(C)(C)C)c1

>  <assigned_label>
true

$$$$
>  <compound>
CC(=O)O[C@]1(C(C)=O)CC[C@H]2[C@@H]3C[C@H](C)C4=CC(=O)CC[C@]4(C)[C@H]3CC[C@@]21C

>  <assigned_label>
false

$$$$

Here is the next item to consider.
# fetch the recorded call for `CNC[C@H](O)c1cccc(O)c1` here
false

---

Read-out: Transforming growth factor beta 1 (TGFb1), TGFB1 (gene 7040)
Assay: BSK_KF3CT_TGFb1: BioMAP Diversity Plus: KF3CT Assay for Transforming growth factor beta 1 (TGFb1) Biomarker Activity (AID 2283072)
Conditions: primary human keratinocytes with fibroblasts; actives raise or lower the signal
Procedure: BSK_KF3CT is a cell-based, multiplexed-readout assay that uses keratinocytes and foreskin fibroblasts, a human skin primary cell co-culture, with measurements taken at 24 hours after chemical dosing in a 96-well plate.BSK_KF3CT_TGFb1 is an assay component measured in the BSK_KF3CT assay. It measures TGF-b1 antibody related to regulation of gene expression using ELISA technology.Data from the assay component BSK_KF3CT_TGFb1 was analyzed into 1 assay endpoint. […]
Active and inactive are the calls of the source. The calls were made as follows: active = hit-call score of the fitted dose curve at least 0.9, where 1 is the maximum; inactive = score below 0.9.
readout_kind: AC50

Look over these answered cases.
>  <compound>
CC1CCC(C(C)CS)CC1S (configuration not stated)

>  <AC50>
7.37 µM (active)

$$$$
>  <compound>
CC(C)(COC(=O)c1ccccc1)COC(=O)c1ccccc1

>  <AC50>
inactive

$$$$
>  <compound>
CCCCCCCCCCCCCCCCCC(=O)OCC(CC)CCCC (configuration not stated)

>  <AC50>
inactive

$$$$
>  <compound>
CC(=O)/C=C/C1=C(C)CCCC1(C)C

>  <AC50>
inactive

$$$$
>  <compound>
CCCCC/C=C/C=C/C=O

>  <AC50>
9.27 µM (active)

$$$$

// lookup AC50 for `C=C[Si](OCC)(OCC)OCC`
inactive

And for `c1ccc2sc(SN(C3CCCCC3)C3CCCCC3)nc2c1` ?
inactive

And `COC(=O)c1ccc(C)cc1` ?
inactive

Check `CC(C)c1ccc(C(C)C)cc1` too.
inactive

Also `CC(=O)Nc1ccccc1O` , if possible.
inactive

`O=C1CCCCCCCCCCCCCCO1` ?
20 µM (active)

Moving on to the next compound: `O=C1OC2(c3cc(Br)c(O)c(Br)c3Oc3c2cc(Br)c(O)c3Br)c2c(Cl)c(Cl)c(Cl)c(Cl)c21`
0.979 µM (active)

Also, CCCCC(CC)COCCC#N (configuration not stated) please.
inactive

Thanks! And `O=C(O)c1cn(C2CC2)c2cc(N3CCNCC3)c(F)cc2c1=O` ?
inactive

Same question for `CCCCCCCCCC=O` please.
inactive

---

read-out: Transforming growth factor beta 1 (TGFb1), TGFB1 (gene 7040); test: BSK_BE3C_TGFb1: BioMAP Diversity Plus: BE3C Assay for Transforming growth factor beta 1 (TGFb1) Biomarker Activity (AID 2283036); settings: primary human bronchial epithelial cells; actives raise or lower the signal
Calls of active or inactive are those of the source. The calls were made as follows: active = hit-call score of the fitted dose curve at least 0.9, where 1 is the maximum; inactive = score below 0.9.
The reply should be one of these categories: active, inactive

Please review the entries below; each comes with its answer.
>  <molecule>
CCCCCCCCCC=O

>  <assigned_label>
inactive

$$$$
>  <molecule>
O=C(O)c1ccc([N+](=O)[O-])cc1

>  <assigned_label>
inactive

$$$$
>  <molecule>
c1ccc2c(c1)c1cccc3ccc4cccc2c4c31

>  <assigned_label>
inactive

$$$$
>  <molecule>
CNC[C@H](O)c1cccc(O)c1

>  <assigned_label>
inactive

$$$$

GET /call?item= `CC(=O)O[C@]1(C(C)=O)CC[C@H]2[C@@H]3C[C@H](C)C4=CC(=O)CC[C@]4(C)[C@H]3CC[C@@]21C` returns the recorded outcome of this test.
inactive

Query CC1CCC(C(C)CS)CC1S (stereo not given) next
inactive

Now consider `CCn1c2ccccc2c2cc(N)ccc21` and answer again.
inactive

Now the molecule O=C=NC1CCC(CC2CCC(N=C=O)CC2)CC1 (stereo not given)
inactive

Request: `C#C[C@]1(O)CC[C@H]2[C@@H]3CCC4=Cc5oncc5C[C@]4(C)[C@H]3CC[C@@]21C`
inactive

Again, but for `O=C1CCCCCCCCCCCCCCO1`
active

Also check `O=C(O)c1cn(-c2ccc(F)cc2)c2cc(N3CCNCC3)c(F)cc2c1=O`
inactive

---

target: Heat shock factor protein 1 (Homo sapiens) (UniProt Q00613); test: ATG_HSE_CIS: Attagene CIS-FACTORIAL HepG2 Assay for human Heat Shock Transcription Factor 1 (HSE) (AID 2282953); conditions: HepG2 HSE cis-reporter, Attagene RNA transcription; actives raise or lower the signal
Sequence (Q00613 whole entry, looked up): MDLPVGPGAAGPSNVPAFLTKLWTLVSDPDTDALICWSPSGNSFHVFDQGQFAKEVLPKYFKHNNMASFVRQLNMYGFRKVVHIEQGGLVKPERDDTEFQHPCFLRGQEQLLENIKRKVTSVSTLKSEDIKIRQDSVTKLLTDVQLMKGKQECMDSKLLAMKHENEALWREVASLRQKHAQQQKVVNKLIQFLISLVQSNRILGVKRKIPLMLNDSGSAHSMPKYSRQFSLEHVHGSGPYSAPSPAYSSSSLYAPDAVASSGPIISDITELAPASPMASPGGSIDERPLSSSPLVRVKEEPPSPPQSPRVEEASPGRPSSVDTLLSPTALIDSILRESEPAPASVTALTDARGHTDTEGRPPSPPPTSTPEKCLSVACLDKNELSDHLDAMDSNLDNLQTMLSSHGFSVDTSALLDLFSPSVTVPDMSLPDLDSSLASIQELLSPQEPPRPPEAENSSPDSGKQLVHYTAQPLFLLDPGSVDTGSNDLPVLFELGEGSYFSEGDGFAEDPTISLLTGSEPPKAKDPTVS
Calls of active or inactive are those of the source. How the source made its calls: active means hit-call score of the fitted dose curve at least 0.9, where 1 is the maximum; inactive means score below 0.9.
Outcomes you can answer with include only these: true (1) = active, false (0) = inactive

>  <molecule>
CC1=CCC(O)(C(C)C)CC1 (configuration not stated)

>  <assigned_label>
false (0)

$$$$
>  <molecule>
CCCCCCCCCCCCOCCO

>  <assigned_label>
false (0)

$$$$
>  <molecule>
CCCCCCCCCCCCCCCC(=O)OC[C@H](O)[C@H]1OC(=O)C(O)=C1O

>  <assigned_label>
true (1)

$$$$

For `CCC/C=C/C=O` , which call appears in the assay record?
false (0)

Can you handle `NCCNCCN` next?
false (0)

Another molecule: `CCCCCCOC(=O)CCCCC`
false (0)

Now this one: `Nc1cc(Cl)c(O)c(Cl)c1`
true (1)

Again, but for `CCCCO`
false (0)

Try this molecule next: `Nc1ccc(F)c([N+](=O)[O-])c1`
false (0)

Try this molecule next: `CC1(C)[C@H]2CC[C@]1(C)[C@H](O)C2`
false (0)

Item: CC(C=O)Cc1ccc(C(C)C)cc1 (configuration not stated)
false (0)

# repeat for `CCOc1ccccc1OCC`
false (0)

Can you check `O=C(O)Cc1cccc2ccccc12` next?
false (0)

// same read-out, input: `O=C(O)C[C@H](O)C[C@H](O)/C=C/c1c(C2CC2)nc2ccccc2c1-c1ccc(F)cc1`
false (0)

Same read-out for `CC(C)c1cccc(O)c1` ?
false (0)

---

target: Retinoic acid receptor RXR-alpha (Homo sapiens); assay: OT_NURR1_NURR1RXRa_0480: Odyssey Thera (OT) 8-hour HEK293T Protein Complementation Assay for Nurr1/retinoid X receptor (RXR) (AID 2283385)
Inconclusive results are not listed. Calls of active or inactive are those of the source. How the source made its calls: active means hit-call score of the fitted dose curve at least 0.9, where 1 is the maximum; inconclusive means response in the unintended direction; inactive means score below 0.9.
Give one outcome, nothing more. List: active, inactive

Before answering, review these 3 worked examples.
>  <compound>
CC(C)=CCC[C@](C)(O)[C@@H]1CC=C(C)CC1

>  <assigned_label>
inactive

$$$$
>  <compound>
CCCCCCCCCC=O

>  <assigned_label>
inactive

$$$$
>  <compound>
CC(C)=CCCC(C)=CCCC(C)=CCO

>  <assigned_label>
inactive

$$$$

# outcome recorded in this test, key = CCCC1CCC(=O)O1 (centres undefined)
inactive

Try this compound next: `OCCOCCOCCOCCO`
inactive

Try this compound too: NC(=O)NC1NC(=O)NC1=O (centres undefined)
inactive

---

read-out: Intercellular Adhesion Molecule 1 (ICAM1), ICAM1 (gene 3383); assay: BSK_KF3CT_ICAM1: BioMAP Diversity Plus: KF3CT Assay for Intercellular Adhesion Molecule 1 (ICAM1) Biomarker Activity (AID 2283067); settings: primary human keratinocytes with fibroblasts; actives raise or lower the signal
Calls of active or inactive are those of the source. How the source made its calls: active means hit-call score of the fitted dose curve at least 0.9, where 1 is the maximum; inactive means score below 0.9.
Your response should consist of one outcome taken from class 1 (active), class 0 (inactive)

Below, 5 compounds whose answers are already recorded.
>  <compound>
CCCCCCCCCCCCCCCCCC(=O)OCC(CC)CCCC (stereo unspecified)

>  <assigned_label>
class 0

$$$$
>  <compound>
O=C1CCCCCCCCCCCCCCO1

>  <assigned_label>
class 1

$$$$
>  <compound>
CC(=O)O[C@]1(C(C)=O)CC[C@H]2[C@@H]3C[C@H](C)C4=CC(=O)CC[C@]4(C)[C@H]3CC[C@@]21C

>  <assigned_label>
class 0

$$$$
>  <compound>
CC(=O)/C=C/C1=C(C)CCCC1(C)C

>  <assigned_label>
class 0

$$$$
>  <compound>
CC(=O)[C@H]1CC[C@H]2[C@@H]3CC=C4C[C@@H](O)CC[C@]4(C)[C@H]3CC[C@]12C

>  <assigned_label>
class 0

$$$$

--- query ---
Write down the call the test reported for this compound. Item: `Cc1ccc2n[nH]nc2c1`
class 0
